Where these numbers come from: patent US8454977B2

# tested_on: biotinylated purified PAK pili
# Sequence (P02973 7-150): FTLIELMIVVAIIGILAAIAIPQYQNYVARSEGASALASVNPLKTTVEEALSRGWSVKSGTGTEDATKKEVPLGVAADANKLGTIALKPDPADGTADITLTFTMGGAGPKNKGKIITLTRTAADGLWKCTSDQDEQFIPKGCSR
# setup_conditions: read-out: apparent Ki of the peptide inhibition of PAK pilus binding to steel
property_name: Ki

Request: # input substance: Ac-KCTSDQDEQFIPKGCSK-OH (cysteine pairing not given here) [PAK(128-144)ox] ; wanted: its Ki
Result: ~200 pM

---

# Tested on: biotinylated viable PAKwt cells
# Type: cell-based, Pseudomonas aeruginosa
# setup_conditions: read-out: apparent Ki of the peptide inhibition of PAKwt binding to steel
property_name: Ki

Request: # Ki lookup, item Ac-KCTSDQDEQFIPKGCSK-OH (cysteine pairing not given here) [PAK(128-144)ox]
Result: ~4 nM
